Catalogue of compounds with associated AUC of viability dose-response curve
tested on: SEM cells; assay: AUC of viability dose-response curve (% viability x log10 dose units); higher = less sensitive; conditions: HPLM + 10% dialyzed FBS; 48 h
Experimental Readout: AUC of viability dose-response curve

molecule=OC1=CC=C(C=C1)\C2=C\OC3=C(C(=CC(=C3)O)O)C2=O experimental_readout="AUC of viability dose-response curve" numeric_result=452
molecule=COC(=O)Nc1nc2cc(C(=O)c3ccc(F)cc3)ccc2[nH]1 experimental_readout="AUC of viability dose-response curve" numeric_result=343
molecule=C[C@H](NCc1ccc2c(c1)nc(NC(=O)c1ccc(-c3cn[nH]c3)s1)n2CCc1ccccc1)C(C)(C)C experimental_readout="AUC of viability dose-response curve" numeric_result=248
molecule=NC(=O)Nc1sc(-c2ccc(F)cc2)cc1C(N)=O experimental_readout="AUC of viability dose-response curve" numeric_result=425
molecule=O=C(NCCCCN1CCOCC1)c1cc2ccccc2o1 experimental_readout="AUC of viability dose-response curve" numeric_result=441
molecule=O=C/1NC(=O)C(=C1C2=CN=C3C=CC=C[N]23)/C4=C[N]5CCN(CC6=C5C4=CC=C6)C(=O)N7CCOCC7 experimental_readout="AUC of viability dose-response curve" numeric_result=138
molecule=C[C@@H]1C/C=C/C=C/C=C/C=C/[C@@H](O[C@@H]2O[C@H](C)[C@@H](O)[C@H](N)[C@@H]2O)C[C@@H]2O[C@](O)(C[C@@H](O)C[C@@H]3O[C@H]3/C=C/C(=O)O1)C[C@H](O)[C@H]2C(=O)O experimental_readout="AUC of viability dose-response curve" numeric_result=475
molecule=CCN(CCO)CCCOc1ccc2c(Nc3cc(CC(=O)Nc4cccc(F)c4)[nH]n3)ncnc2c1 experimental_readout="AUC of viability dose-response curve" numeric_result=302
molecule=N\C1=N\C2=C(N=C[N]2COCCO)C(=O)N1 experimental_readout="AUC of viability dose-response curve" numeric_result=451
molecule=CC(=O)c1cnc2ccc(-c3cc(Cl)c(O)c(Cl)c3)nc2c1N[C@H]1CC[C@H](CN(C)C)CC1 experimental_readout="AUC of viability dose-response curve" numeric_result=218

* * *

test system: SEM cells; experiment: cell viability relative to DMSO control; higher = less cytotoxic; conditions: RPMI 5 mM glucose + 10% dialyzed FBS; 48 h; 46.1 µM
Cut-off 60% on cell viability: below means Fulfilled, at or above means Not fulfilled.

molecule=CCN(CCO)CCCOc1ccc2c(Nc3cc(CC(=O)Nc4cccc(F)c4)[nH]n3)ncnc2c1 answer_label=Fulfilled
molecule=CC[C@]12CC[C@H]3[C@@H](CCC/4=C/C(=O)CC[C@H]34)[C@@H]1CC[C@@]2(O)C#C answer_label="Not fulfilled"
molecule=CC1=C(/C=C/C(C)=C/C=C/C(C)=C\C(=O)O)C(C)(C)CCC1 answer_label="Not fulfilled"
molecule=NC(=O)[C@H]1CCS[C@@H]2C[C@]3(CCCN3C(=O)Cc3ccc(NC(=O)COc4ccc(Cl)cc4Cl)cc3)C(=O)N12 answer_label=Fulfilled
molecule="CCOC(=O)C(C#N)C\\1C2=CC(=CC=C2O\\C(=C1C(=O)OCC)N)Br (stereo not given)" answer_label=Fulfilled

* * *

Catalogue of compounds with associated AUC of viability dose-response curve
system: P12-Ichikawa; assay: AUC of viability dose-response curve (% viability x log10 dose units); higher = less sensitive; conditions: RPMI 5 mM glucose + 10% FBS; 48 h
Experimental Readout: AUC of viability dose-response curve

compound=COc1cc(CCc2cc(NC(=O)c3ccc(N4C[C@@H](C)N[C@@H](C)C4)cc3)n[nH]2)cc(OC)c1 numeric_result=435
compound=COc1ccc(C(=O)c2c(C)n(CCN3CCOCC3)c3ccccc23)cc1 numeric_result=463
compound=NC[C@@H]1O[C@H](O[C@H]2[C@@H](O)[C@H](O[C@@H]3[C@@H](O)[C@H](N)C[C@H](N)[C@H]3O[C@H]3O[C@H](CN)[C@@H](O)[C@H](O)[C@H]3N)O[C@@H]2CO)[C@H](N)[C@@H](O)[C@@H]1O.O=S(=O)(O)O.O=S(=O)(O)O.O=S(=O)(O)O numeric_result=467
compound=COc1cc([C@@H]2c3cc4c(cc3[C@H](O)[C@H]3COC(=O)[C@@H]23)OCO4)cc(OC)c1OC numeric_result=279
compound=OC1=CC2=C(C=C1)C(=O)\C(=C(O2)\C3=CC(=C(O)C=C3)O)O numeric_result=420
compound=CCN1\C=C(\C(O)=O)C(=O)C2=C1N=C(N3CCNCC3)C(=C2)F numeric_result=386
compound="CCC(C)N1\\N=C/N(C1=O)C2=CC=C(C=C2)N3CCN(CC3)C4=CC=C(OC[C@H]5CO[C@@](C[N]6C=NC=N6)(O5)C7=CC=C(Cl)C=C7Cl)C=C4 (some centres undefined)" numeric_result=463
compound=C[C@]1(CO)CN(c2cc(C(=O)Nc3ccc4c(c3)-c3c(c(C(N)=O)nn3-c3ccc(F)cc3)CC4)c(Cl)cn2)C[C@@]1(C)CO numeric_result=423
compound=CC(C)=CCC/C(C)=C/CC/C(C)=C/CSc1ccccc1C(=O)O numeric_result=366
compound=N#C/C(=C\c1ccc(O)c(O)c1)C(=O)NCc1ccccc1 numeric_result=436
compound=C[C@@H]1CCN(C(=O)CC#N)C[C@@H]1N(C)c1ncnc2[nH]ccc12 numeric_result=413
compound="O=C(O)CCCCC(CCSCc1ccccc1)SCc1ccccc1 (centres undefined)" numeric_result=462
compound=CCOC(=O)[C@@]1(CCCCCCOc2ccc(Cl)cc2)CO1 numeric_result=452
compound=O=C1NCCc2[nH]c(-c3ccncc3)cc21 numeric_result=428
compound="N[C@H]2CN(CC12CC1)c3c(F)cc4c(c3Cl)[N@@](C=C(C4=O)C(=O)O)C5C[C@H]5F (some centres undefined)" numeric_result=417
compound=C=CCNc1c(O)cc2c(O)c1C[C@@H](C)C[C@H](OC)[C@H](O)[C@@H](C)/C=C(/C)[C@H](OC(N)=O)[C@@H](OC)/C=C\C=C(\C)C(=O)N2 numeric_result=398
compound="C=C1C(=O)OC(CCCCCCCC)C1C(=O)O (centres undefined)" numeric_result=467
compound=CC[C@]12CC[C@H]3[C@@H](CCC/4=C/C(=O)CC[C@H]34)[C@@H]1CC[C@@]2(O)C#C numeric_result=405
compound=C/C(=N\NC(=S)N1CCC1)c1ccccn1 numeric_result=120
compound="CC1(CN2CCC(n3c(=O)[nH]c4ccccc43)CC2)OCc2ccccc2-n2cccc21 (centres undefined)" numeric_result=469
compound=[O-]C(=O)C/1=N/C(=O)NC(=O)N1 numeric_result=427
compound=ClC1=CC=C2N/C3=N/C(=O)CN3CC2=C1Cl numeric_result=456
compound=CC(C)(O)[C@H]1CC[C@@](C)([C@H]2[C@@H](O)C[C@@]3(C)[C@@H]4C[C@H](O[C@@H]5O[C@H](CO)[C@@H](O)[C@H](O)[C@H]5O)[C@H]5C(C)(C)[C@@H](O[C@@H]6OC[C@@H](O)[C@H](O)[C@H]6O)CC[C@@]56C[C@@]46CC[C@]23C)O1 numeric_result=451
compound=CN(C)c1ccc2nc3ccc(N(C)C)cc3[s+]c2c1 numeric_result=386
